biological target: T1, Recombinant hIL-21-Fc (AcroBiosystems) (human, UniProt Q9HBE4 30-162); assay: SPR, Fab on captured rhIL-21-Fc
T1 construct: bought; also called rhIL-21; not shown: Fc of the bought reagent, not described
T1 sequence (Q9HBE4 30-162): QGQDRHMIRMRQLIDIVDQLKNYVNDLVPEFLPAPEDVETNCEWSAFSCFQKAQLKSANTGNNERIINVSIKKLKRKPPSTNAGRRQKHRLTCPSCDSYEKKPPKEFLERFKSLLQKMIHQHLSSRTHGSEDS
READOUT: kon (M⁻¹ s⁻¹)
Numbers only, in M⁻¹ s⁻¹.

[
  {
    "BINDER": "ZAP122m14 Fab (Fab, V domains shown, Fab) VH: QVQLQESGPGLVKPSETLSLTCTVSGGSISSDFWSWIRQPPGKGLEWIGYISSRGSTNYNPSLKRRVTISVDTSRNQFSLKLSSVTAADTAVYYCARSAGVTDFDFWGQGTLVTVSS VL: DIQMTQSPSSVSASVGDRVTITCRASQGISSWLAWYQHKPGKAPKLLIYVASSLQSGVPSRFSGSGSGTDFTLTISSLQPEDFATYYCQQANSFPLTFGGGTKVEIK",
    "RESULT_UNIT": "M⁻¹ s⁻¹",
    "TEST_VALUE": 260000
  }
]

Okay, now this binder:
Incoming: For the binder shown here, ZAP122m9 Fab (Fab, V domains shown, Fab) VH: QVQLQESGPGLVKPSETLSLTCTVSGGSISSDFWGWIRQPPGKGLEWIGYISSRGSTNYNPSLKRRVTISVDTSRNQFSLKLSSVTAADTAVYYCARSAGVTDFDFWGQGTLVTVSS VL: DIQMTQSPSSVSASVGDRVTITCRASQGISSWLAWYQHKPGKAPKLLIYVASSLQSGVPSRFSGSGSGTDFTLTISSLQPEDFATYYCQQANSFALTFGGGTKVEIK , give the reported kon.
Outgoing: 238000
